Target: T1, human lambda-5 (on the pre-BCR-expressing human pre-B cell line NALM-6) (human, UniProt P15814 38-213)
T1 construct: On NALM-6 cells lambda-5 stands in the pre-BCR together with VpreB and the mu heavy chain; also called IGLL1; lambda-5 subunit of the SLC of human pre-BCR
T1 sequence (P15814 38-213 limits assumed): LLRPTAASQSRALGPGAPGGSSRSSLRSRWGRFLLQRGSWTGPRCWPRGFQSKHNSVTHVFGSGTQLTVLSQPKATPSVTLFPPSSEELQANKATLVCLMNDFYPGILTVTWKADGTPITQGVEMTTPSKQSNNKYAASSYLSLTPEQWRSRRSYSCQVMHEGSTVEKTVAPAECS
Experiment: flow cytometry, saturation binding of recombinant chimeric mAb to NALM-6 cells
experimental-readout: EC50 (nM)
Output spec: scalar in nM, unitless text.

Example cases with answers are listed next.
| binder | EC50 (nM) |
| --- | --- |
| lambda-5 antibody 4-15E6 (recombinant mouse-human chimeric IgG1/kappa) (antibody, V domains shown, also called mAb 4-15E6) VH: EVQLEESGAELVRSGASVKLSCTASGFNIKDYYLHWVKQRPEQGLEWIGWIDPENGNTDYAPKFQGKATMTADTSSNTAYLQLSSLTSEDTAVYYCNEGYYDYDTDSAMDYWGQGTSVTVSS VL: DVLMTQTPLSLPVSLGDQASISCRSSQSLVHSDGITYLHWYLQKPGQSPKLLIYKVSNRFSGVPDRFSGSGSGTDFTLKISRVEAEDLGVYFCSQSTRVPWTFGGGTKLEIKR | 3.7 |
| lambda-5 antibody 4-17G9 (recombinant mouse-human chimeric IgG1/kappa) (antibody, V domains shown, also called mAb 4-17G9) VH: EVQLQQSGTVLARPGASVKMSCQASGYTFTNYWMHWVKQRPGQGLEWIGAIYPGNSDTSYNQNFKGKAELTAVTSATTAYMELSSLTDEDSAVYYCTRADYDGTPFDYWGQGTTLTVSS VL: DIVMTQSPLTLSVTIGHPASISCKSSQSLLDSDGETYLSWLLQRPGQSPKRLIYLVSKLDSGVPDRFTGSGSGTDFTLKISRVEAEDLGVYYCWQGTHFPLTFGAGTKVELKR | 9 |
| lambda-5 antibody 4-6D12 (recombinant mouse-human chimeric IgG1/kappa) (antibody, V domains shown, also called mAb 4-6D12) VH: EVQLQQSGTVLARPGASVKMSCKASGYTFTNYWMHWVKQRPGQGLEWIGAIYPGNSDTSYNQKFKGKAKLTAVTSASTAYMELSSLTNEDSAVYFCTRADYDGTPFDYWGQGTTLTVSS VL: DILMTQSPLTLSVTIGHPASISCKSSQSLLDSDGETYLSWLLQRPGQSPERLIYLVSKLDSGVPDRFTGSGSGTDFTLKISRVEAEDLGVYYCWQGTHFPLTFGAGTKLELKR | 1.9 |

# context switch: different binder, same EC50
Identify measured EC50 corresponding to lambda-5 antibody 4-7A6 (recombinant mouse-human chimeric IgG1/kappa) (antibody, V domains shown, also called mAb 4-7A6) VH: EVQLQQSGTVLARPGTSVKMSCKASGYTFTSYWMHWVKQRPGQGLEWIGAIYLGNTDTSYNQKFKGKAKLTAVTSASSAYMELSSLTNEDSAVYYCTRADYDGTPFDYWGQGTTLTVSS VL: DVVMTQNALTLSVTIGHPASISCRSSQSLLDSDGETYLSWLLQRPGQSPKRLIYLVSKLDSGVPDRFTGSGSGTDFTLKISRVEAEDLGVYYCWQGTHFPLTFGAGTKLELKR
2.3
